Provenance of the data: the supplement of paper PMC11061612

System: CESS (Acute Myeloid Leukemia)
ASSAY NOTES: Bliss excess, mean over the matrix (fraction); higher = more synergy
Recorded Bliss excess, one value per entry.
REPORTED METRIC: Bliss excess

COMPOUND	REPORTED METRIC	READOUT VALUE
CN(CCO)CC[C@H](CSc1ccccc1)Nc1ccc(S(=O)(=O)NC(=O)c2ccc(N3CCC([C@@H](O)c4ccccc4-c4ccc(Cl)cc4)CC3)cc2)cc1S(=O)(=O)C(F)(F)F [AZD4320] + Cn1cnc2c(F)c(Nc3ccc(Br)cc3Cl)c(C(=O)NOCCO)cc21 [Selumetinib] (first compound max 1 µM, 7x7, partner max 3 µM)	Bliss excess	-0.0701
CC1(C)CCC(CN2CCN(c3ccc(C(=O)NS(=O)(=O)c4ccc(NCC5CCOCC5)c([N+](=O)[O-])c4)c(Oc4cnc5[nH]ccc5c4)c3)CC2)=C(c2ccc(Cl)cc2)C1 [Venetoclax] + C=CCn1c(=O)c2cnc(Nc3ccc(N4CCN(C)CC4)cc3)nc2n1-c1cccc(C(C)(C)O)n1 [AZD1775] (first compound max 1 µM, partner max 1 µM)	Bliss excess	-0.0236
CC(=O)c1c(C)c2cnc(Nc3ccc(N4CCNCC4)cn3)nc2n(C2CCCC2)c1=O [Palbociclib] + CC1(C)CCC(CN2CCN(c3ccc(C(=O)NS(=O)(=O)c4ccc(NCC5CCOCC5)c([N+](=O)[O-])c4)c(Oc4cnc5[nH]ccc5c4)c3)CC2)=C(c2ccc(Cl)cc2)C1 [Venetoclax] (first compound max 10 µM, 7x7, partner max 1 µM)	Bliss excess	-0.0272

====

System: G-402 (Other Solid Carcinomas)
ASSAY NOTES: combination Emax (second highest fraction inhibited in the dose matrix, 72 h); higher = more inhibition; extreme values may be limits of the assay
REPORTED METRIC: combination Emax

COMPOUND	READOUT VALUE
CC(=O)Nc1cccc(-n2c(=O)n(C3CC3)c(=O)c3c(Nc4ccc(I)cc4F)n(C)c(=O)c(C)c32)c1 [Trametinib] + Cc1nc(-c2cn3c(n2)-c2ccc(-c4cnn(C(C)(C)C(N)=O)c4)cc2OCC3)n(C(C)C)n1 [Taselisib] (first compound max 1 µM, 7x7, partner max 10 µM)	0.792
C[C@@H](c1ccc2nccn2c1)n1nnc2ncc(-c3cnn(C)c3)nc21 [Savolitinib] + CC1(C)CCC(CN2CCN(c3ccc(C(=O)NS(=O)(=O)c4ccc(NCC5CCOCC5)c([N+](=O)[O-])c4)c(Oc4cnc5[nH]ccc5c4)c3)CC2)=C(c2ccc(Cl)cc2)C1 [Venetoclax] (first compound max 1 µM, 7x7, partner max 1 µM)	0.131
NC1(C(=O)N[C@@H](CCO)c2ccc(Cl)cc2)CCN(c2ncnc3[nH]ccc23)CC1 [Capivasertib] + CC(C)n1c(=O)n(C)c2cnc3cc(F)c(-c4ccc(OCCCN5CCCCC5)nc4)cc3c21 [AZD1390] (first compound max 10 µM, 7x7, partner max 0.3 µM)	0.398
CN(CCO)CC[C@H](CSc1ccccc1)Nc1ccc(S(=O)(=O)NC(=O)c2ccc(N3CCC([C@@H](O)c4ccccc4-c4ccc(Cl)cc4)CC3)cc2)cc1S(=O)(=O)C(F)(F)F [AZD4320] + CCN(CCO)CCCOc1ccc2c(Nc3cc(CC(=O)Nc4cccc(F)c4)[nH]n3)ncnc2c1 [AZD2811] (first compound max 1 µM, 7x7, partner max 1 µM)	0.776
Cc1c2c(nn1C)CSCc1cc(n(C)n1)CSc1cc(c3ccccc3c1)OCCCc1c(C(=O)O)n(C)c3c-2c(Cl)ccc13 [AZD5991] + CCN(CCO)CCCOc1ccc2c(Nc3cc(CC(=O)Nc4cccc(F)c4)[nH]n3)ncnc2c1 [AZD2811] (first compound max 1 µM, 7x7, partner max 1 µM)	0.946
CN(C)CCCOc1ccc(-c2ccc3ncc4c(c3c2)n(C2CCOCC2)c(=O)n4C)cn1 [AZD0156] + O=C(c1cc(Cc2n[nH]c(=O)c3ccccc23)ccc1F)N1CCN(C(=O)C2CC2)CC1 [Olaparib] (first compound max 3 µM, partner max 3 µM)	0.41
COc1nnc2ccc(N3CCC(c4ccc(OCCN5CCN(C)C(=O)[C@H]5C)cc4)CC3)nn12 [AZD5153] + C[C@@H]1COCCN1C2=NC(=NC(=C2)C3(CC3)[S@](=N)(=O)C)C4=C5C=CNC5=NC=C4 [AZD6738] (first compound max 1 µM, 7x7, partner max 10 µM)	0.941
Cc1c2c(nn1C)CSCc1cc(n(C)n1)CSc1cc(c3ccccc3c1)OCCCc1c(C(=O)O)n(C)c3c-2c(Cl)ccc13 [AZD5991] + Cc1cc2ncnn2cc1Nc1ncc2c(n1)n(C1CCOCC1)c(=O)n2C [AZD7648] (first compound max 1 µM, 7x7, partner max 10 µM)	0.939
C[C@@H](c1ccc2nccn2c1)n1nnc2ncc(-c3cnn(C)c3)nc21 [Savolitinib] + Cc1c2c(nn1C)CSCc1cc(n(C)n1)CSc1cc(c3ccccc3c1)OCCCc1c(C(=O)O)n(C)c3c-2c(Cl)ccc13 [AZD5991] (first compound max 1 µM, 7x7, partner max 1 µM)	0.409

====

Measured Bliss excess accompanies every entry in the list below.
Tested on: NCI-H2228 (Lung Adenocarcinoma)
ASSAY NOTES: Bliss excess, mean over the matrix (fraction); higher = more synergy
REPORTED METRIC: Bliss excess

COMPOUND	REPORTED METRIC	READOUT VALUE
CCc1c2c(nc3ccc(O)cc13)-c1cc3c(c(=O)n1C2)COC(=O)[C@]3(O)CC [SN-38] + CN(C)CCCOc1ccc(-c2ccc3ncc4c(c3c2)n(C2CCOCC2)c(=O)n4C)cn1 [AZD0156] (first compound max 0.3 µM, 7x7, partner max 1 µM)	Bliss excess	0.0587
NC1(C(=O)N[C@@H](CCO)c2ccc(Cl)cc2)CCN(c2ncnc3[nH]ccc23)CC1 [Capivasertib] + Cn1cnc2c(F)c(Nc3ccc(Br)cc3Cl)c(C(=O)NOCCO)cc21 [Selumetinib] (first compound max 10 µM, 7x7, partner max 10 µM)	Bliss excess	0.017
Cc1c2c(nn1C)CSCc1cc(n(C)n1)CSc1cc(c3ccccc3c1)OCCCc1c(C(=O)O)n(C)c3c-2c(Cl)ccc13 [AZD5991] + C1CN(CCC1(C(=O)N[C@@H](CCO)C2=CC=C(C=C2)Cl)N)C3=NC=NC4=C3C=CN4 [Capivasertib] (first compound max 1 µM, 7x7, partner max 3 µM)	Bliss excess	-0.0225

====

Bliss excess by entry:
Tested on: A204 (Rhabdomyosarcoma)
ASSAY NOTES: Bliss excess, mean over the matrix (fraction); higher = more synergy

COMPOUND	Bliss excess
Cc1cc2ncnn2cc1Nc1ncc2c(n1)n(C1CCOCC1)c(=O)n2C [AZD7648] + O=C(c1cc(Cc2n[nH]c(=O)c3ccccc23)ccc1F)N1CCN(C(=O)C2CC2)CC1 [Olaparib] (first compound max 10 µM, 7x7, partner max 10 µM)	-0.0802
CN(C)CCCOc1ccc(-c2ccc3ncc4c(c3c2)n(C2CCOCC2)c(=O)n4C)cn1 [AZD0156] + C=CCn1c(=O)c2cnc(Nc3ccc(N4CCN(C)CC4)cc3)nc2n1-c1cccc(C(C)(C)O)n1 [AZD1775] (first compound max 1 µM, partner max 1 µM)	-0.0545
Cc1c2c(nn1C)CSCc1cc(n(C)n1)CSc1cc(c3ccccc3c1)OCCCc1c(C(=O)O)n(C)c3c-2c(Cl)ccc13 [AZD5991] + CN(C)CCCOc1ccc(-c2ccc3ncc4c(c3c2)n(C2CCOCC2)c(=O)n4C)cn1 [AZD0156] (first compound max 1 µM, 7x7, partner max 1 µM)	0.0048
CC1(C)CCC(CN2CCN(c3ccc(C(=O)NS(=O)(=O)c4ccc(NCC5CCOCC5)c([N+](=O)[O-])c4)c(Oc4cnc5[nH]ccc5c4)c3)CC2)=C(c2ccc(Cl)cc2)C1 [Venetoclax] + COc1cc(Nc2ncc3c(n2)-c2ccc(Cl)cc2C(c2c(F)cccc2OC)=NC3)ccc1C(=O)O [Alisertib] (first compound max 1 µM, 7x7, partner max 10 µM)	-0.0088

====

System: JHH-2 (Hepatocellular Carcinoma)
ASSAY NOTES: Bliss excess, mean over the matrix (fraction); higher = more synergy
Parameter Bliss excess: see the listing below.

COMPOUND	Bliss excess
CN(CCO)CC[C@H](CSc1ccccc1)Nc1ccc(S(=O)(=O)NC(=O)c2ccc(N3CCC([C@@H](O)c4ccccc4-c4ccc(Cl)cc4)CC3)cc2)cc1S(=O)(=O)C(F)(F)F [AZD4320] + CCN(CCO)CCCOc1ccc2c(Nc3cc(CC(=O)Nc4cccc(F)c4)[nH]n3)ncnc2c1 [AZD2811] (first compound max 1 µM, 7x7, partner max 1 µM)	-0.0489
C[C@@H](c1ccc2nccn2c1)n1nnc2ncc(-c3cnn(C)c3)nc21 [Savolitinib] + Cc1c2c(nn1C)CSCc1cc(n(C)n1)CSc1cc(c3ccccc3c1)OCCCc1c(C(=O)O)n(C)c3c-2c(Cl)ccc13 [AZD5991] (first compound max 1 µM, 7x7, partner max 1 µM)	-0.0228
Cc1c2c(nn1C)CSCc1cc(n(C)n1)CSc1cc(c3ccccc3c1)OCCCc1c(C(=O)O)n(C)c3c-2c(Cl)ccc13 [AZD5991] + C[C@@H]1COCCN1C2=NC(=NC(=C2)C3(CC3)[S@](=N)(=O)C)C4=C5C=CNC5=NC=C4 [AZD6738] (first compound max 1 µM, 7x7, partner max 10 µM)	0.0115
